Where these numbers come from: patent US20240190880A1

# DC50 per record follows
- Assay target: ER (Homo sapiens, UniProt P03372)
- Construct: host or cells: T47D and MCF7 human breast cancer cells
- Sequence (P03372 1-595): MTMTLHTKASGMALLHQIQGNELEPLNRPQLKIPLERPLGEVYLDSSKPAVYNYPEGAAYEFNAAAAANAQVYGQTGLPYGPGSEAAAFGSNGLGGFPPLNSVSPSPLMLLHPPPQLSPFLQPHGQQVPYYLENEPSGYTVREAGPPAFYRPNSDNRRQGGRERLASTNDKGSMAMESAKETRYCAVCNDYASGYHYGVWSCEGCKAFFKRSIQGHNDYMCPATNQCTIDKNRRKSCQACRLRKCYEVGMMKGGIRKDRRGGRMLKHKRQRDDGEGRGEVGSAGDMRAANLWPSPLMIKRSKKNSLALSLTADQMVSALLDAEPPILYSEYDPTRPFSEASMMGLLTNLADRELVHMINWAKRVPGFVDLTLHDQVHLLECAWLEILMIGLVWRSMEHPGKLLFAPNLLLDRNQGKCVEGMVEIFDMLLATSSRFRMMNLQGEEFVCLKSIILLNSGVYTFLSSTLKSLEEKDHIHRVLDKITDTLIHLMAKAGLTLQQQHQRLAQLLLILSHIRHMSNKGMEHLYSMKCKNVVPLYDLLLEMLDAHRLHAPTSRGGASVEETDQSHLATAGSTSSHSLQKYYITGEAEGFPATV
- Protocol: ER degradation activity, in-cell western blot analysis in T47D cells
- Assay type: cell-based
- Condition details: 16 hours, Table A does not say which cell line (T47D or MCF7), read-out: Potency (DC50)
Outcome measure: DC50

1. O=C1CCC(N2C(=O)c3cc4c(cc3C2=O)CN(CC(=O)N2CC3(CCN(c5ccc([C@@H]6c7ccc(O)cc7CC[C@@H]6c6ccc(F)cc6)cc5)CC3)C2)C4)C(=O)N1 (mixture of isomers): < 10 nM
2. C[C@@H]1Cc2c([nH]c3ccccc23)[C@@H](c2c(F)cc(N3CC4(CCN(C(=O)CN5Cc6cc7c(cc6C5)C(=O)N(C5CCC(=O)NC5=O)C7)C4)C3)cc2F)N1CC(F)F (stereo partly shown): < 10 nM
3. O=C1CCC(N2C(=O)c3cc4c(cc3C2=O)CN([C@H]2CC[C@@H](NC3CN(c5ccc([C@@H]6c7ccc(O)cc7CC[C@@H]6c6ccccc6)cc5)C3)CC2)C4)C(=O)N1 (stereo partly shown): > 100 nM
4. C[C@@H]1Cc2c([nH]c3ccccc23)[C@@H](c2c(F)cc(C(=O)N3CCC4(CCC(CN5Cc6cc7c(cc6C5)C(=O)N(C5CCC(=O)NC5=O)C7=O)CC4)CC3)cc2F)N1CC(F)F (stereo partly shown): > 100 nM
5. C[C@@H]1Cc2cc(O)ccc2C(c2ccc(N3CCC(C(=O)N4CCC(N5Cc6cc7c(cc6C5)C(=O)N(C5CCC(=O)NC5=O)C7=O)CC4)CC3)cc2)N1CC(F)F (stereo partly shown): < 10 nM
6. C[C@@H]1Cc2c([nH]c3ccccc23)[C@@H](c2c(F)cc(N3CCC(CN4CCC(C(=O)N5Cc6cc7c(cc6C5)C(=O)N(C5CCC(=O)NC5=O)C7=O)CC4)C3)cc2F)N1CC(F)F (stereo partly shown): < 10 nM
7. CN(c1ccc([C@H]2c3ccc(O)cc3CC[C@H]2c2ccccc2)cc1)C1CN([C@H]2CC[C@H](C(=O)N3Cc4cc5c(cc4C3)C(=O)N(C3CCC(=O)NC3=O)C5=O)CC2)C1 (stereo partly shown) [E 395]: > 100 nM
8. C[C@@H]1Cc2c([nH]c3ccccc23)[C@@H](c2cnc(N3CCC(CN4CCC(N5Cc6cc7c(cc6C5)C(=O)N(C5CCC(=O)NC5=O)C7=O)CC4)CC3)nc2)N1CC(F)(F)F (stereo partly shown): 10 to 100 nM
9. C[C@@H]1Cc2cc(O)ccc2[C@@H](c2c(F)cc(N3CC4(CCN(C(=O)CN5Cc6cc7c(cc6C5)C(=O)N(C5CCC(=O)NC5=O)C7)CC4)C3)cc2F)N1CC(C)(F)F (stereo partly shown): > 100 nM
10. O=C1CCC(N2C(=O)c3cc4c(cc3C2=O)CN(C2CC(C(=O)N3CCCC(Oc5ccc([C@@H]6c7ccc(O)cc7CC[C@@H]6c6ccccc6)cc5)C3)C2)C4)C(=O)N1 (mixture of isomers): > 100 nM
